Source listed as the supplement of paper PMC9170038.

System: MS2 coat protein
assay overview: apparent KD of MS2 coat protein; designed switch direction (-1 OFF switch, 1 ON switch): -1; higher = weaker reporter binding
experimental conditions: Eterna round: R95; input ligand: microRNA oligo, concentration not stated
Classification field: enter Criterion met for apparent KD of MS2 coat protein values not below 40 nM, Criterion not met for values below it.

// query Confirm if apparent KD of MS2 coat protein reported for the sequence GCGAAAGCAAGCAAGUGAAACAUGAGGAUCACCCAUGUCCUCAUUUGCUCGUCUUAUAAGCUAUGCGAAAGCAUAGC [Sensor 3, v1 - 2] (puzzle: Sensor v3, turn-off variant 1) is 40 nM or above.
// result Criterion met

// query hey, is apparent KD of MS2 coat protein for this one >= 40 nM? CUGGUCCGAGGAUAUAUUAUGUGAAACAUGAGGAUCACCCAUGUAAUAUGAUGGAUGUAAAUAGAAGGCGGGCUAG [Mat - Exclusion 5 - JL mod - D26] (puzzle: Exclusion 5)
// result Criterion not met

// query # bool: apparent KD of MS2 coat protein of CGUACUGAAGUCAGGAUAUUGUCUCGGAUACGAAACAAGAAGGGACAUGAGGAUCACCCAUGUAGACAGUACGA [Malc #30 mod 3] (puzzle: Brourd's mod of Exclusion 4) >= 40 nM
// result Criterion not met

// query Dear colleague, could you confirm whether AAGAAGUAAGGAUAUGGCCGGGUCCCUGGGUUUGGACCCGGCUAGAAGGUACAUGAGGAUCACCCAUGUAAGAA [Excls4-IX] (puzzle: Exclusion 4) has apparent KD of MS2 coat protein at or above 40 nM?
// result Criterion not met

// query Record AGCAGUAGUAUCCGAUCCUACAUGAGGAUCACCCAUGUAGCUAGACGUGCACGCGAUGCUCGUCAGACUACCAGAUG [salish99_TOv1_r3_035] (puzzle: Sensor v3, turn-off variant 1) ; criterion: apparent KD of MS2 coat protein no lower than 40 nM. Met?
// result Criterion met

// query Test whether the sequence AAAUGGGCGUAGGAUAUGAGAUGGUCUAGCAGCUCAGAAGGACGCACAUGAGGAUCACCCAUGUGAUCGGACUA [Celebidi] (puzzle: Exclusion 6) records apparent KD of MS2 coat protein of 40 nM or higher.
// result Criterion not met

// query State whether the measured apparent KD of MS2 coat protein reaches 40 nM, counting equality as reaching it, for AAAAAACAAGGAUAUACGGAUGAAGAGAGUCUUAAUUUUUGACAUGAGGAUCACCCAUGUAGAAGGUGUUAAAA [JR_Exclusion2_Sub017] (puzzle: Exclusion 2)
// result Criterion met

// query Please indicate if the recorded apparent KD of MS2 coat protein for UAGAAACAUGAGGAUCACCCAUGUGAGGAUAUGAAAAAGAAAAGAAAAGAAAGAAGAAUCAGAAGGCACAAAGU [salish99-ex1_r3_087] (puzzle: Exclusion 1) meets or exceeds 40 nM.
// result Criterion not met

// query Is reported apparent KD of MS2 coat protein greater than or equal to 40 nM here: GAGUAGGUAGGAUAUACGAUAAUAUAGGGUAGAUAUAUAACACAUGAGGAUCACCCAUGUAGAAGGACCAGGAG [Mat - Exclusion 2 - Mod of my Tesla design - D63] (puzzle: Exclusion 2)
// result Criterion not met

// query Does the reported apparent KD of MS2 coat protein for UAUGUUGUUGUGAGGAUAUACUUUGUUUGGUCGUAGUAGAAGGCACAUGAGGAUCACCCAUGUAGAUUUUUGGU [JR_BME4_Sub009] (puzzle: Brourd's mod of Exclusion 4) fall at or above the 40 nM mark?
// result Criterion not met

// query Could you verify whether the entry CAUGGAACGUAGGAUAUCUCACAGCCAGGCUGCAGAGAAGGACGUACAUGAGGAUCACCCAUGUAUGAUCCAAA [Tius] (puzzle: Exclusion 6) shows apparent KD of MS2 coat protein of no less than 40 nM?
// result Criterion not met

// query Determine whether this sequence has apparent KD of MS2 coat protein no lower than 40 nM: UUUUACCAAGGAUAUACAUUUUUUUUAUUAUUUUCAUUAUAACAUGAGGAUCACCCAUGUAGAAGGUGGAUUUU [My Design] (puzzle: Exclusion 2)
// result Criterion met

// query Hi team, for AUUUUAACAUAGGAUAUCGAAUUUAUCAUUUAACGAGAAGGAUGAACAUGAGGAUCACCCAUGUGGUAUCAUGG [JL-ex6-3.01] (puzzle: Exclusion 6) , is the recorded apparent KD of MS2 coat protein at or above 40 nM?
// result Criterion met

// query Is apparent KD of MS2 coat protein at least 40 nM? Consider UCGCUGCGAGGAUAUACGUGCGCGCGCGCGCGCGCGCGCGUACAUGAGGAUCACCCAUGUAGAAGGCGCUCUGC [Apr-15 SS2-2] (puzzle: Exclusion 2)
// result Criterion not met

// query Identify whether the reported apparent KD of MS2 coat protein of the following sequence is 40 nM or greater: CUCGUGUGAGGAUAUCUAUUCCACGGACGGGAGUCUUGAAGAGAGAAGGCACAUGAGGAUCACCCAUGUAAUAA [Latequ] (puzzle: Exclusion 4)
// result Criterion met

// query Form field: apparent KD of MS2 coat protein at least 40 nM? Entry: GGGUAGUGAGGAUAUCGUUGUUAGGAGGAGUAGGUAGGAGGCGAGAAGGCACAUGAGGAUCACCCAUGUAUGGA [JR_Exclu4_Sub067] (puzzle: Exclusion 4)
// result Criterion not met

// query Tell me whether apparent KD of MS2 coat protein is at least 40 nM here: UUUUAACAUGAGGAUCACCCAUGUGAGGAUAUCGAAAUUUAUAUUAAUAUUAUUUAAACGAGAAGGCACAUUUU [JMF 43] (puzzle: Exclusion 1)
// result Criterion met

// query For this sequence, is measured apparent KD of MS2 coat protein 40 nM or higher? GCCAGAGCAGGAUAUUCAGUAUCACACAUGAGGAUCACCCAUGUCCACGGAAACGUGGAGGGAGAAGGGCUCUGGC [Mat - Exclusion 5 - Eli mod - D96] (puzzle: Exclusion 5)
// result Criterion met

// query Quick check: does GUGGUGACAGGAUAUACAUGAGGAUCACCCAUGUGAGGAGGACGAGACAGGUGAAGGAGUAGAAGGGUCAGAGG [JR_Exclu3_Sub027] (puzzle: Exclusion 3) have apparent KD of MS2 coat protein greater than or equal to 40 nM?
// result Criterion met

// query Hello, I need to know if CUUAUGUGAGGAUAUCAGUAGUGAUACGAUAGUAUUACUGCUGAGAAGGCACAUGAGGAUCACCCAUGUUCCUU [Exclusion 4 - Mod Omei Ex4 344 mod v.3] (puzzle: Exclusion 4) has measured apparent KD of MS2 coat protein not below 40 nM. Thanks!
// result Criterion not met

// query Given AUAAAAGUAGGAUAUUGACUGAUCGACAUGAGGAUCACCCAUGUGGUGCUGUGCGGUAUUCAAGAAGGGCUAAAAU [Ceisusma] (puzzle: Exclusion 5) , state whether its apparent KD of MS2 coat protein is at least 40 nM.
// result Criterion not met
